Provenance of the data: patent US12258345B1

Biological target: recombinant human CK2 (RRBB-holoenzyme) (Homo sapiens)
Sequence (P68400 whole entry): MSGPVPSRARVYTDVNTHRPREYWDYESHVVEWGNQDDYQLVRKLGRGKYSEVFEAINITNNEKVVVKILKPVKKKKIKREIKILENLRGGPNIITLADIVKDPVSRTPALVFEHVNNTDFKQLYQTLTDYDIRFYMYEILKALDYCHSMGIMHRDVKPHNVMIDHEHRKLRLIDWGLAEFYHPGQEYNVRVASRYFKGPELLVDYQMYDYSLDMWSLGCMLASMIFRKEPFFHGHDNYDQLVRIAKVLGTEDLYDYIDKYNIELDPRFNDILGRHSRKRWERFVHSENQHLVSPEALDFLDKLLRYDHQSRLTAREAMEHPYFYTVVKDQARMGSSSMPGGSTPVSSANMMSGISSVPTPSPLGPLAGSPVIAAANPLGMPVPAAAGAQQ
Sequence (P67870 whole entry partner): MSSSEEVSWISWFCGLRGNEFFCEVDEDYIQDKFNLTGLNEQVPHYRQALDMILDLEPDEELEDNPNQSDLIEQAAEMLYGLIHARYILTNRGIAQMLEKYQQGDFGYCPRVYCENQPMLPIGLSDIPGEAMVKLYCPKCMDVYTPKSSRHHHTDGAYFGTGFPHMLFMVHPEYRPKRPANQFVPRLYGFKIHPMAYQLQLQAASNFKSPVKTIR
Test: CK2 Kinase Assay (33P-ATP, substrate peptide RRRDDDSDDD)
Settings: final ATP concentration 15 μM, 10 min at 30° C.; read-out: protein kinase CK2 activity IC50
Attribute Measured: IC50 (nM)
State the answer as a number, implicitly in nM.

Please look up its IC50: O=C1Nc2c(nc(Nc3cccc(Cl)c3)c3cc(C(=O)O)ccc23)C1=O [Compound 1]
38

====

Test system: MCF7 (breast)
Test: MTT in vitro cytotoxic activity assay, MCF7
Type: cell-based
Settings: Homo sapiens, 96 h incubation, read-out: Cytotoxicity activity, MCF7 (breast)
Attribute Measured: IC50 (µM)
State the answer as a number, implicitly in µM.

Please look up its IC50: "O=C1Nc2c(nc(Nc3cccc(Cl)c3)c3cc(C(=O)O)ccc23)C1=O"
5.4
